All figures here come from paper PMC6651196.

Experiment: in vivo
Settings: female, SCID, mouse, total radioactivity, Tumor to muscle ratio
endpoint-name: tissue to tissue ratio at 1.5 h

compound="CSCC[C@H](NC(=O)[C@H](CC(C)C)NC(=O)CNC(=O)[C@H](Cc1ccccc1)NC(=O)[C@H](Cc1ccccc1)NC(=O)[C@H](CCC(N)=O)NC(=O)[C@H](CCC(N)=O)NC(=O)[C@@H]1CCCN1C(=O)[C@H](CCCCN)NC(=O)[C@@H]1CCCN1C(=O)[C@H](CCCNC(=N)N)NC(=O)CN1CCN(CC(=O)O)CCN(CC(=O)O)CCN(CC(=O)O)CC1)C(N)=O [^68Ga-DOTA-substance P, DOTA-substance P, metal not drawn]" test_result=6.45

====

Catalogue of remaining at 2 h values
Assay: Plasma stability, HPLC radiochemical purity
Conditions: human
endpoint-name: remaining at 2 h

molecule="N=C(N)NCCC[C@@H]1NC(=O)[C@H](CCCCNC(=O)CN2CCN(CC(=O)O)CCN(CC(=O)O)CCN(CC(=O)O)CC2)NC(=O)[C@@H](Cc2ccccc2)NC(=O)[C@H](CC(=O)O)NC(=O)CNC1=O [^68Ga-DOTA-c(RGDfK), DOTA-c(RGDfK), metal not drawn]" endpoint_name="remaining at 2 h" test_result=98.8%
molecule="N=C(N)NCCC[C@@H]1NC(=O)[C@H](CCCCNC(=O)CC[C@H](NC(=O)CCC(C(=O)O)N2CCN(CC(=O)O)CCN(CC(=O)O)CC2)C(=O)NCCCC[C@@H]2NC(=O)[C@@H](Cc3ccc(O)cc3)NC(=O)[C@H](CC(=O)O)NC(=O)CNC(=O)[C@H](CCCNC(=N)N)NC2=O)NC(=O)[C@@H](Cc2ccc(O)cc2)NC(=O)[C@H](CC(=O)O)NC(=O)CNC1=O (stereo partly drawn) [^68Ga-NODAGA-c(RGDyK)2, NODAGA-c(RGDyK)2, metal not drawn]" endpoint_name="remaining at 2 h" test_result=99%
molecule="N=C(N)NCCC[C@@H]1NC(=O)[C@H](CCCCNC(=O)CCC(C(=O)O)N2CCN(CC(=O)O)CCN(CC(=O)O)CC2)NC(=O)[C@@H](Cc2ccc(O)cc2)NC(=O)[C@H](CC(=O)O)NC(=O)CNC1=O (stereo partly drawn) [^68Ga-NODAGA-c(RGDyK), NODAGA-c(RGDyK), metal not drawn]" endpoint_name="remaining at 2 h" test_result=98.8%

====

Settings: mouse, in vivo, Tumor uptake
endpoint-name: tissue uptake at 0.5 h (%ID/g)

compound="CSCC[C@H](NC(=O)[C@H](CC(C)C)NC(=O)CNC(=O)[C@H](Cc1ccccc1)NC(=O)[C@H](Cc1ccccc1)NC(=O)[C@H](CCC(N)=O)NC(=O)[C@H](CCC(N)=O)NC(=O)[C@@H]1CCCN1C(=O)[C@H](CCCCN)NC(=O)[C@@H]1CCCN1C(=O)[C@H](CCCNC(=N)N)NC(=O)CN1CCN(CC(=O)O)CCN(CC(=O)O)CCN(CC(=O)O)CC1)C(N)=O [^68Ga-DOTA-substance P, DOTA-substance P, metal not drawn]" display_unit=%ID/g test_result=2.14

====

Test: in vitro
Settings: human, plasma
endpoint-name: remaining at 0.5 h (%)

compound="CSCC[C@H](NC(=O)[C@H](CC(C)C)NC(=O)CNC(=O)[C@H](Cc1ccccc1)NC(=O)[C@H](Cc1ccccc1)NC(=O)[C@H](CCC(N)=O)NC(=O)[C@H](CCC(N)=O)NC(=O)[C@@H]1CCCN1C(=O)[C@H](CCCCN)NC(=O)[C@@H]1CCCN1C(=O)[C@H](CCCNC(=N)N)NC(=O)CN1CCN(CC(=O)O)CCN(CC(=O)O)CCN(CC(=O)O)CC1)C(N)=O [^68Ga-DOTA-substance P, DOTA-substance P, metal not drawn]" test_result=98.2

====

Assay: in vitro
Settings: human, plasma
endpoint-name: remaining at 2 h (%)

compound="CSCC[C@H](NC(=O)[C@H](CC(C)C)NC(=O)CNC(=O)[C@H](Cc1ccccc1)NC(=O)[C@H](Cc1ccccc1)NC(=O)[C@H](CCC(N)=O)NC(=O)[C@H](CCC(N)=O)NC(=O)[C@@H]1CCCN1C(=O)[C@H](CCCCN)NC(=O)[C@@H]1CCCN1C(=O)[C@H](CCCNC(=N)N)NC(=O)CN1CCN(CC(=O)O)CCN(CC(=O)O)CCN(CC(=O)O)CC1)C(N)=O [^68Ga-DOTA-substance P, DOTA-substance P, metal not drawn]" display_unit=% test_result=98

====

Catalogue of tissue to tissue ratio at 0.5 h values
Assay: Ex vivo biodistribution
Details: female, SCID, mouse, tumor and muscle, total radioactivity, Tumor to muscle ratio, 30 min p.i., from ex vivo biodistribution
endpoint-name: tissue to tissue ratio at 0.5 h

molecule="N=C(N)NCCC[C@@H]1NC(=O)[C@H](CCCCNC(=O)CCC(C(=O)O)N2CCN(CC(=O)O)CCN(CC(=O)O)CC2)NC(=O)[C@@H](Cc2ccc(O)cc2)NC(=O)[C@H](CC(=O)O)NC(=O)CNC1=O (stereo partly drawn) [^68Ga-NODAGA-c(RGDyK), NODAGA-c(RGDyK), metal not drawn]" endpoint_name="tissue to tissue ratio at 0.5 h" test_result=3.23
molecule="N=C(N)NCCC[C@@H]1NC(=O)[C@H](CCCCNC(=O)CC[C@H](NC(=O)CCC(C(=O)O)N2CCN(CC(=O)O)CCN(CC(=O)O)CC2)C(=O)NCCCC[C@@H]2NC(=O)[C@@H](Cc3ccc(O)cc3)NC(=O)[C@H](CC(=O)O)NC(=O)CNC(=O)[C@H](CCCNC(=N)N)NC2=O)NC(=O)[C@@H](Cc2ccc(O)cc2)NC(=O)[C@H](CC(=O)O)NC(=O)CNC1=O (stereo partly drawn) [^68Ga-NODAGA-c(RGDyK)2, NODAGA-c(RGDyK)2, metal not drawn]" endpoint_name="tissue to tissue ratio at 0.5 h" test_result=5.84
molecule="N=C(N)NCCC[C@@H]1NC(=O)[C@H](CCCCNC(=O)CN2CCN(CC(=O)O)CCN(CC(=O)O)CCN(CC(=O)O)CC2)NC(=O)[C@@H](Cc2ccccc2)NC(=O)[C@H](CC(=O)O)NC(=O)CNC1=O [^68Ga-DOTA-c(RGDfK), DOTA-c(RGDfK), metal not drawn]" endpoint_name="tissue to tissue ratio at 0.5 h" test_result=2.42

====

Test: in vitro
Conditions: human, plasma
endpoint-name: remaining at 1 h

compound="CSCC[C@H](NC(=O)[C@H](CC(C)C)NC(=O)CNC(=O)[C@H](Cc1ccccc1)NC(=O)[C@H](Cc1ccccc1)NC(=O)[C@H](CCC(N)=O)NC(=O)[C@H](CCC(N)=O)NC(=O)[C@@H]1CCCN1C(=O)[C@H](CCCCN)NC(=O)[C@@H]1CCCN1C(=O)[C@H](CCCNC(=N)N)NC(=O)CN1CCN(CC(=O)O)CCN(CC(=O)O)CCN(CC(=O)O)CC1)C(N)=O [^68Ga-DOTA-substance P, DOTA-substance P, metal not drawn]" endpoint_name="remaining at 1 h" test_result=98.2%

====

Conditions: human, plasma
endpoint-name: fraction unbound

compound="CSCC[C@H](NC(=O)[C@H](CC(C)C)NC(=O)CNC(=O)[C@H](Cc1ccccc1)NC(=O)[C@H](Cc1ccccc1)NC(=O)[C@H](CCC(N)=O)NC(=O)[C@H](CCC(N)=O)NC(=O)[C@@H]1CCCN1C(=O)[C@H](CCCCN)NC(=O)[C@@H]1CCCN1C(=O)[C@H](CCCNC(=N)N)NC(=O)CN1CCN(CC(=O)O)CCN(CC(=O)O)CCN(CC(=O)O)CC1)C(N)=O [^68Ga-DOTA-substance P, DOTA-substance P, metal not drawn]" test_result=~0.71

====

endpoint-name: logP

compound="CSCC[C@H](NC(=O)[C@H](CC(C)C)NC(=O)CNC(=O)[C@H](Cc1ccccc1)NC(=O)[C@H](Cc1ccccc1)NC(=O)[C@H](CCC(N)=O)NC(=O)[C@H](CCC(N)=O)NC(=O)[C@@H]1CCCN1C(=O)[C@H](CCCCN)NC(=O)[C@@H]1CCCN1C(=O)[C@H](CCCNC(=N)N)NC(=O)CN1CCN(CC(=O)O)CCN(CC(=O)O)CCN(CC(=O)O)CC1)C(N)=O [^68Ga-DOTA-substance P, DOTA-substance P, metal not drawn]" endpoint_name=logP test_result=-3.03

====

Catalogue of tissue to tissue ratio at 0.5 h values
Test: Ex vivo biodistribution
Conditions: female, SCID, mouse, tumor and blood, total radioactivity, Tumor to blood ratio, 30 min p.i., from ex vivo biodistribution
endpoint-name: tissue to tissue ratio at 0.5 h

compound="N=C(N)NCCC[C@@H]1NC(=O)[C@H](CCCCNC(=O)CC[C@H](NC(=O)CCC(C(=O)O)N2CCN(CC(=O)O)CCN(CC(=O)O)CC2)C(=O)NCCCC[C@@H]2NC(=O)[C@@H](Cc3ccc(O)cc3)NC(=O)[C@H](CC(=O)O)NC(=O)CNC(=O)[C@H](CCCNC(=N)N)NC2=O)NC(=O)[C@@H](Cc2ccc(O)cc2)NC(=O)[C@H](CC(=O)O)NC(=O)CNC1=O (stereo partly drawn) [^68Ga-NODAGA-c(RGDyK)2, NODAGA-c(RGDyK)2, metal not drawn]" endpoint_name="tissue to tissue ratio at 0.5 h" test_result=2.3
compound="N=C(N)NCCC[C@@H]1NC(=O)[C@H](CCCCNC(=O)CN2CCN(CC(=O)O)CCN(CC(=O)O)CCN(CC(=O)O)CC2)NC(=O)[C@@H](Cc2ccccc2)NC(=O)[C@H](CC(=O)O)NC(=O)CNC1=O [^68Ga-DOTA-c(RGDfK), DOTA-c(RGDfK), metal not drawn]" endpoint_name="tissue to tissue ratio at 0.5 h" test_result=1.09
compound="N=C(N)NCCC[C@@H]1NC(=O)[C@H](CCCCNC(=O)CCC(C(=O)O)N2CCN(CC(=O)O)CCN(CC(=O)O)CC2)NC(=O)[C@@H](Cc2ccc(O)cc2)NC(=O)[C@H](CC(=O)O)NC(=O)CNC1=O (stereo partly drawn) [^68Ga-NODAGA-c(RGDyK), NODAGA-c(RGDyK), metal not drawn]" endpoint_name="tissue to tissue ratio at 0.5 h" test_result=1.9
